Source listed as paper PMC3206016.

Biological target: T1, SCRIB-3/4 (MBP fusion of the third of the four PDZ domains of SCRIB) (human, UniProt Q14160-1 997-1093)
T1 construct: also called MBP-PDZ analyte SCRIB-3/4; source: E. coli BL21 DE3, purified (amylose column, Superdex 75 gel filtration)
T1 sequence (looked up): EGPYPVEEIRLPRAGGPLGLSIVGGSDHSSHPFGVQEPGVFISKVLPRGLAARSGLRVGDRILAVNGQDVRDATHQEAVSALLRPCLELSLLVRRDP
Assay: SPR
Details: both partners purified
Ends that are not written are not given here. * marks the point of attachment. Biotin = O=C1N[C@H]2[C@H](CS[C@H]2CCCCC(=O)*)N1
Readout name: Kd

Prompt: Need Kd of Biotin-PMESGICTIV (also called TTC24 long; source: synthetic peptide (JPT Peptide Technologies)) [TTC24_10 (long peptide of Tetratricopeptide repeat protein 24: the last ten residues)] , thanks.
Completion: 117 µM
